target: Glucocorticoid receptor (Homo sapiens); test: Transrepression activity at glucocorticoid receptor in human H292 cells assessed as inhibition of TNF-stimulated IL-6 cytokine synthesis at 1 uM relative to control; format: cell-based
MEASURE: Emax (%)
Express your answer in %, writing the number without its unit.

Input line: Give the value of Emax reported for the following: C[C@]12CCC(=O)C=C1CC[C@@H]1[C@@H]2[C@@H](O)C[C@@]2(C)[C@H]1CC[C@]2(OC(=O)c1ccco1)C(=O)CSc1ccc2ccccc2n1
Output line: 96

Input line: Tell us which Emax value is on record for C[C@]12CCC(=O)C=C1CC[C@@H]1[C@@H]2[C@@H](O)C[C@@]2(C)[C@H]1CC[C@]2(OC(=O)c1ccco1)C(=O)CSc1nc2ncccc2s1
Output line: 94

Input line: Let me know recorded Emax for C[C@@H]1C[C@H]2[C@@H]3CCC4=CC(=O)C=C[C@]4(C)[C@@]3(F)[C@@H](O)C[C@]2(C)[C@@]1(O)C(=O)CSc1nc2ccccc2s1 , thanks.
Output line: 98

---

Biological target: Glucocorticoid receptor (Homo sapiens)
Sequence (whole entry): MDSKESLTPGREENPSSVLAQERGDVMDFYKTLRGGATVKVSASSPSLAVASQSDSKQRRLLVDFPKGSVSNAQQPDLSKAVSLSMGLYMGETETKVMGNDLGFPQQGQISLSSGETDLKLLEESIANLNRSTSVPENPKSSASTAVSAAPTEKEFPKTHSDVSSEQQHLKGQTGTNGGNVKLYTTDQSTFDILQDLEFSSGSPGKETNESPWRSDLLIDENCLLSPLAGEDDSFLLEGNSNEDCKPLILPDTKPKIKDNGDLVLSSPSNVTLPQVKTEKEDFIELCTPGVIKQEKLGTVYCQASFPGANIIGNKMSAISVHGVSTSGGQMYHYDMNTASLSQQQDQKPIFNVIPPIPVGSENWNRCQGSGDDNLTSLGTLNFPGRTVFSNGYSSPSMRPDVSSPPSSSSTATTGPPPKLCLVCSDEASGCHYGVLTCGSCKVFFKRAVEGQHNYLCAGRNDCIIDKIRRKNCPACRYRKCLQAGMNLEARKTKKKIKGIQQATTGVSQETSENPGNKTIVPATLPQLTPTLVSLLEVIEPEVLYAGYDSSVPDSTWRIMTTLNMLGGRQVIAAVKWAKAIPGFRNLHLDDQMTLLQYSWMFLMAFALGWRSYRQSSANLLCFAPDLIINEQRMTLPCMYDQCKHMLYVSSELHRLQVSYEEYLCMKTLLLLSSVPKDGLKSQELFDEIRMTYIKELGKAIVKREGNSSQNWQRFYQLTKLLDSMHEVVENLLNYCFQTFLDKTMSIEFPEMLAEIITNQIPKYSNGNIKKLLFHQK
Assay: Transrepression activity at glucocorticoid receptor in human H292 cells assessed as inhibition of TNF-stimulated IL-6 cytokine synthesis at 1 uM relative to control
Type: cell-based
# Emax values compiled below
The reply should contain only the number, in %.

Illustrative cases are given below, each with its answer.
C[C@]12CCC(=O)C=C1CC[C@@H]1[C@@H]2[C@@H](O)C[C@@]2(C)[C@H]1CC[C@]2(OC(=O)c1ccco1)C(=O)CSc1cnc2ccccc2n1
98
Cc1ccnc(SCC(=O)[C@@]2(OC(=O)c3ccco3)CC[C@H]3[C@@H]4CCC5=CC(=O)C=C[C@]5(C)[C@H]4[C@@H](O)C[C@@]32C)n1
98

Input line: Using the record for C[C@@H]1C[C@H]2[C@@H]3C[C@H](F)C4=CC(=O)C=C[C@]4(C)[C@@]3(F)[C@@H](O)C[C@]2(C)[C@@]1(O)C(=O)CSc1nc2ccccc2s1 , state its measured Emax.
Output line: 100

Input line: # return recorded Emax for entry C[C@]12C=CC(=O)C=C1CC[C@@H]1[C@@H]2[C@@H](O)C[C@@]2(C)[C@H]1CC[C@]2(O)C(=O)CSc1nc2ccccc2s1
Output line: 78

Values compiled from ChEMBL document CHEMBL1914389.
